The measurements presented in this section are drawn from PubChem BioAssay (NCI).

Listing: growth inhibition of selected compounds
Assay: NCI Yeast Anticancer Drug Screen. Data for the rad18 strain (AID 177)
Details: S. cerevisiae rad18 mutant growth inhibition; at 3.7 µM; active compounds read high
About 79,000 compounds went through this panel and 15% of them were active in at least one assay; those are over-represented in the sample as a whole.
Give your result in % as a bare value.

Query :: Quick one: give measured growth inhibition for `COc1ccc2c(c1)[nH]c1c(/C=C/c3ccccc3)nccc12`
Result :: 0

Query :: State its growth inhibition: `Nc1cc(F)cc2c1-c1ccc(F)cc1C2`
Result :: 4

Query :: Provide only the value of recorded growth inhibition for `O=C(/C=C\c1ccc([N+](=O)[O-])o1)Nc1ccc(Cl)cc1`
Result :: 97

Query :: Specify reported growth inhibition for the compound shown: O=C1NC(c2c(Cl)cccc2Cl)Nc2ccccc21 (configuration not stated)
Result :: -2

Query :: Find the measured growth inhibition of `O=C(O)c1ccccc1.[Ag]` and report it.
Result :: 101

Query :: Annotate the compound CC1OC(OC2CCCc3c(O)c4c(c(O)c32)C(=O)c2ccccc2C4=O)CC(N)C1O (configuration not stated) with its measured growth inhibition.
Result :: 0

Query :: Tell me growth inhibition reported for `Cc1onc(-c2ccccc2Cl)c1C1=N/C(=C/c2cc(Cl)cc(Cl)c2O)C(=O)O1`
Result :: -50

Query :: Give the value of growth inhibition reported for the following: `c1ccc2c(c1)ccc1c3ccncc3ccc21`
Result :: 18

Query :: Supply growth inhibition value. Item: OC(CN1CCCCC1)c1cc(Cl)c(Cl)c(Cl)c1 (configuration not stated)
Result :: 13

Query :: Provide one value: measured growth inhibition of `COc1cc2c(cc1C[N+](C)(C)CSc1ccccc1)-c1ccccc1CC2`
Result :: 12

Query :: Consider the compound `CCc1[nH]nc(C(N)=O)c1N=NN(C)C` and give its recorded growth inhibition.
Result :: 6

Query :: Input `On1cnc(=S)c2[nH]cnc21` , output reported growth inhibition.
Result :: -33
